molecular target: native Aβ aggregates in human AD brain tissue sections (Homo sapiens); construct: native Aβ aggregates in human AD brain tissue samples; from tissue; host or cells: human AD brain tissue sections; experiment: Aβ in vitro displacement assay (selectivity counterscreen, [3H]Example 3 autoradiography); type: binding; conditions: 1 μM compound; 3 nM [3H]Example 3; human AD brain sections; read-out: sel. counterscreen PCT_INHIB AD @ 1 μM (% displacement of [3H]Example 3)
Sequence (P05067 672-713 limits assumed): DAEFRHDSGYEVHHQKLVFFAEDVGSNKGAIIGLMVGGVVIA
RESULT_TYPE: inhibition at 1 µM (%)

{"columns": ["SUBSTANCE_SMILES", "RESULT_TYPE", "UNIT_DESCRIPTOR", "RESULT_VALUE"],
 "data": [
  ["COc1ccc(C(=O)Nc2ccc(N3CCN(c4cccc(C#N)c4)CC3)cc2)cc1", "inhibition at 1 µM", "%", 99],
  ["COc1ccc(C(=O)Nc2ccc(N3CCN(c4ccc(C#N)cc4)CC3)cc2)cc1OC", "inhibition at 1 µM", "%", 82],
  ["O=C(Nc1ccc(N2CCN(c3nccs3)CC2)cc1)c1ccc(OCCOCCOCCF)cc1", "inhibition at 1 µM", "%", 93],
  ["CN(C)c1ccc(C(=O)Nc2ccc(N3CCN(c4nccs4)CC3)cc2)cc1", "inhibition at 1 µM", "%", 103],
  ["COc1ccc(C(=O)Nc2ccc(N3CCN(c4ccc(C#N)cn4)CC3)cc2)cc1", "inhibition at 1 µM", "%", 86],
  ["O=C(Nc1ccc(N2CCN(c3ccccn3)CC2)cc1)c1ccc2c(c1)OCO2", "inhibition at 1 µM", "%", 98],
  ["N#Cc1ccc(N2CCN(c3ccc(NC(=O)c4ccc(N5CCOCC5)cc4)cc3)CC2)cc1", "inhibition at 1 µM", "%", 86],
  ["N#Cc1ccc(N2CCN(c3ccc(NC(=O)c4ccc(OCCOCCF)cc4)cc3)CC2)cc1", "inhibition at 1 µM", "%", 85]
]}

Where do the numbers come from? From patent US11541132B2.
